Test system: P388 leukemia ip, CD2F1 mice, survival T/C
Assay: NCI In Vivo Anticancer Drug Screen. Data for tumor model P388 Leukemia (intraperitoneal) in CD2F1 (CDF1) mice
Conditions: endpoint: median survival time; dose: 400.0 mg/kg/injection; schedule: Q04DX002 (ip); vehicle: saline with Tween-80; higher = longer survival
Toxic doses and inconclusive results are not listed.

# compound, T/C
rows = [
    ("C/C(=N\\NC(N)=Nc1ccc(Cl)cc1)c1ccc2c(c1)Cc1ccccc1-2", "114 % of control"),
    ("COC(=O)C12CCC(CC1C13CCCC(C)(C)C1C(=O)OC3)C(C)C2O (configuration not stated)", "94 % of control"),
    ("CC1=CC(C)(C)N=C2SC(=O)c3cc4c(cc3N12)OCO4", "97 % of control"),
    ("O=C(N/N=C/c1cc(Cl)cc(Cl)c1[O-])c1ccccc1.O=C(N/N=C/c1cc(Cl)cc(Cl)c1[O-])c1ccccc1.[Fe+2]", "100 % of control"),
    ("O=C(NC(Cc1ccccc1)C(=O)CCC(=O)N1CCCC1C(=O)O)c1ccccc1 (configuration not stated)", "101 % of control"),
    ("NC(=S)n1nc(-c2ccccc2)c(N=Nc2cc(Cl)ccc2Cl)c1-c1ccccc1", "110 % of control"),
    ("COc1cc(OC2OC(CO)C(O)C(O)C2O)ccc1/C=C\\C(=O)c1ccc(O)cc1 (configuration not stated)", "91 % of control"),
]
